# Tested on: OVCAR-3
# protocol notes: NCI tumour cell line growth inhibition, 48 h
Calls of active or inactive are those of the source. Rule as the data show it: active = GI50 up to about 1.1 µM and inactive = higher.
measurement type: GI50

1) COc1ccc(Oc2cccc(/C=C3/C(=O)Nc4ccccc43)c2)cc1 | 7.89 µM (inactive)
2) Cc1sc(N)c(S(=O)(=O)c2ccccc2)c1C | 80.5 µM (inactive)
3) O=c1c2ccccc2n2c(-c3ccc(O)cc3)nnc2n1-c1ccccc1 | 18.2 µM (inactive)
4) N#CC(NCc1cccc(CNC(C#N)c2ccccc2)c1)c1ccccc1 (configuration not stated) | > 100 µM (inactive)
5) O=C(O)CCCCCO | > 100 µM (inactive)
6) COc1ccc(/N=C2\C(=O)Nc3ccc(Br)cc32)cc1 | 21.7 µM (inactive)
7) COC(=O)C1CCC(=S)N1C(=O)c1ccccc1 (configuration not stated) | > 100 µM (inactive)

----------
# System: NCI-H460
# protocol notes: NCI tumour cell line growth inhibition, 48 h
Activity calls are given as the source filed them. Cut-off read from the data, not from the text of the source: active = GI50 up to about 1.1 µM and inactive = higher.
measurement type: GI50

1) O=C1NC2(O)c3ccccc3C(=O)C2(O)N1c1ccccc1 (stereo unspecified) | > 100 µM (inactive)
2) Nc1nc(Nc2ccc(Cl)cc2)sc1C(=O)c1c[nH]c2ccccc12 | 6.92 µM (inactive)
3) N#C/C(=C\c1ccc(O)cc1O)C(N)=O | > 100 µM (inactive)
4) Cc1ccc(C2(C)NC(=S)N(NC(N)=S)C2=S)cc1 (stereo unspecified) | > 100 µM (inactive)
5) CCC(C(=O)c1ccccc1)C(CCCC(=O)Nc1c(C)cccc1C)N=O (stereo unspecified) | > 100 µM (inactive)
6) CCN(CC)c1ccc2c(c1)Oc1ccc(N(C(C)=O)c3ccccc3)cc1C21OC(=O)c2ccccc21 (stereo unspecified) | 65.9 µM (inactive)
7) O=C1OC(=O)c2c1c(-c1ccccc1)nc1ccccc21 | > 100 µM (inactive)
8) Cc1ccc(-c2nc(-c3cnccn3)n(C3OC(CO)C(O)C(O)C3O)n2)cc1 (stereo unspecified) | > 100 µM (inactive)
9) CC1C(O)C2(Oc3cc4c(c5c3[C@@H](CC5O)[C@H]2C)CCC2Cc3nc5c(nc3C[C@@]42C)CC2CCC3C4=C[C@H]6O[C@@]7(O[C@@](C)(CO)C[C@@H]7O)C(C)[C@@]6(O)[C@]4(C)[C@@H](O)CC3[C@]2(C)C5)OC1(C)C (stereo partly specified) | 0.0735 µM (active)
10) Cc1sc(N)c(S(=O)(=O)c2ccccc2)c1C | > 100 µM (inactive)
11) CC(=O)NC1C(OCc2ccccc2)OC(CO)C(O)C1OCC(=O)N1CCCC1C(=O)N[C@@H](CCC(=O)NCCCCNc1c2ccccc2nc2cccc([N+](=O)[O-])c12)C(N)=O (stereo partly specified) | 21 µM (inactive)
12) O=NN(CCCl)C(=O)NC1CCSc2ccccc21 (stereo unspecified) | > 69.3 µM (inactive)
13) Cc1ccc(S(=O)(=O)N/N=C/c2c(O)ccc3ccccc23)cc1 | 26.3 µM (inactive)
14) CCCCc1c(O)nc(Nc2nc3ccccc3[nH]2)[nH]c1=O | > 100 µM (inactive)
15) COc1ccc(-n2cnn3c(=O)c4cn[nH]c4nc23)cc1 | > 10 µM (inactive)
16) C/C(=N\NC(=S)N1CCN(c2ccccn2)CC1)c1cccc(C)n1 | 1.03 µM (active)
17) O=C(NO)C(=O)Nc1cc(Cl)ccc1Cl | > 100 µM (inactive)
18) Cn1cco/c1=N/c1ccc(Cl)c(Cl)c1 | > 10 µM (inactive)
19) CSC(SC)(C(=O)O)c1cc(-c2c(Cl)cccc2Cl)no1 | 34.9 µM (inactive)
20) CCCCCCCCCCC(C(=O)O)C1(C(=O)O)CCC(=O)O1 (stereo unspecified) | > 100 µM (inactive)
21) N#C/N=C(/N)NCN/C(N)=N\C#N | > 100 µM (inactive)
22) Cc1nc(N)c(N2CCN(S(N)(=O)=O)CC2)c(O)n1 | > 100 µM (inactive)
23) COc1cc(C2SC(=N)Nc3c2c(C)nn3C(=O)c2ccccc2O)cc(OC)c1OC (stereo unspecified) | 7.41 µM (inactive)
24) CC(C)(CN1C(=O)C(Cl)=C(Cl)C1=O)CN1C(=O)C(Cl)=C(Cl)C1=O | 35 µM (inactive)
25) COc1ccc(C(=O)C(Br)C(Br)C(=O)O)cc1 (stereo unspecified) | 36.3 µM (inactive)
26) N[C@@H]1CCN(c2c(F)cc3c(=O)c(C(=O)O)cn4c3c2Oc2c-4ccc3c2ccc2ccccc23)C1 | 0.396 µM (active)
27) NNC(=O)Nc1nc2ccc(NN)cc2[nH]1 | 27.4 µM (inactive)
28) Cc1cc(Cl)ccc1NC(=O)C(=O)C(C(=O)c1ccccc1)C1OC(=O)c2ccccc21 (stereo unspecified) | > 100 µM (inactive)
29) N#Cc1c(O)c(/N=N/c2ccccc2F)c(=O)n2c1[nH]c1ccccc12 | 32.6 µM (inactive)
30) O=C1CCC(=O)N1n1c(Cc2ccccc2)n[nH]c1=O | > 100 µM (inactive)
31) CC1(C)CCC2(C(=O)O)C(O)CC3(C)C(=CCC4C5(C)CCC(OC6OCC(O)C(O)C6OC6OCC(O)C(O)C6OC6OCC(O)C(OC7OC(CO)C(O)C(O)C7O)C6O)C(C)(C)C5CCC43C)C2C1 (stereo unspecified) | > 100 µM (inactive)
32) N=C(Cc1ccccc1)NCC(=O)O | > 100 µM (inactive)
33) COc1cc(OC)cc(-n2c(N)c(-c3nc4ccccc4n3C)c3ccc([N+](=O)[O-])cc3c2=O)c1 | > 100 µM (inactive)
34) CC(C)CCNC(=O)C(CC(C)C)NC(=O)[C@H]1O[C@@H]1C(=O)O (stereo partly specified) | > 100 µM (inactive)
35) Cc1sc2nc(N(C)C)oc(=O)c2c1C | > 100 µM (inactive)
36) CNC1C(O)C(OC2C(N)CC(N)C(OC3OC(CN)=CCC3N)C2O)OCC1(C)O (stereo unspecified) | > 100 µM (inactive)
37) Nc1nc(Cl)cc(NCCCCCCCCCCCCNc2cc(Cl)nc(N)n2)n1 | 2.5 µM (inactive)
38) CCCC(=O)Nc1cc(/C=C/C(=O)N2CC(CCl)c3c2cc(OCc2ccccc2)c2[nH]cc(C)c32)n(C)c1 (stereo unspecified) | 0.0147 µM (active)
39) CCOC(=O)c1ccc(N[C@@H]2c3cc4c(cc3C(c3cc(OC)c(O)c(OC)c3)[C@H]3C(=O)OCC32)OCO4)cc1O (stereo partly specified) | < 0.01 µM (active)
40) CC1CC/C(=C\c2ccc(F)cc2)C2=C1C(c1ccc(F)cc1)N1C(=O)CSC1=N2 (stereo unspecified) | 30.8 µM (inactive)
41) C#CCn1c(=O)c(C)cn(/C(=C\C(=O)OCC)C(=O)OCC)c1=O | 2.2 µM (inactive)

----------
# System: M19-MEL
# protocol notes: NCI tumour cell line growth inhibition, 48 h
Active and inactive are the calls of the source. Rule as the data show it: active = GI50 up to about 1.1 µM and inactive = higher.
Outcome codes: true = active, false = inactive

1) Cn1cc(C(=O)c2ccccc2)cc(C(=O)c2ccccc2)c1=O | false
2) O=C(c1nc2ccccc2nc1O)C(O)c1ccco1 (stereo unspecified) | false
3) Cc1c2ccnc(-c3ccccc3)c2cc2c1[nH]c1ccccc12 | true
4) Cc1cc(C(C)C)cc(=O)c(O)c1 | false
5) COC1=CC(=O)c2ccccc2C1(C)C1=NC(C)(C)CO1 (stereo unspecified) | false
6) CSc1nc(NC2OC(COC(C)=O)C(OC(C)=O)C(OC(C)=O)C2OC(C)=O)c(/N=C(\C)C(C)=O)c(=O)[nH]1 (stereo unspecified) | false

----------
# Test system: TK-10
# protocol notes: NCI tumour cell line growth inhibition, 48 h
Active and inactive are the calls of the source. Rule as the data show it: active = GI50 up to about 1.1 µM and inactive = higher.
Possible outcomes: active, inactive

1) CC1(C)CC2(C)CC1CC2(O)c1ccccc1 (stereo unspecified) | inactive
2) NNC(=O)Nc1nc2ccc(NN)cc2[nH]1 | inactive
3) N#CC(NCc1cccc(CNC(C#N)c2ccccc2)c1)c1ccccc1 (stereo unspecified) | inactive
4) Cc1nc2c(c(N3CCN(C)CC3)n1)Cc1ccccc1-2 | inactive
5) COc1ccc2[nH]c(C(=O)N3CC(CCl)c4ccc(N)cc43)cc2c1 (stereo unspecified) | active
6) COc1ccc(COC2CC(OC)OC(C)C2OC(=O)c2ccccc2)cc1 (stereo unspecified) | inactive
7) CNC(=O)OCc1c2ccncc2c(C)c2c1[nH]c1ccccc12 | active
8) C=CCn1c(=O)c(-c2ccccc2)c(O)c2ccccc21 | inactive
9) O=C(O)c1nc2ccc(C(F)(F)F)cc2[nH]c1=O | inactive
10) CCC(C(=O)c1ccccc1)C(CCCC(=O)Nc1c(C)cccc1C)N=O (stereo unspecified) | inactive
11) CC(=O)OCCn1c(Cc2ccc([N+](=O)[O-])cc2)nn(C(C)=O)c1=O | inactive
